Below, each entry is listed with its recorded IC50.
System: 282377-053-R-J1-PDC complex spheroid viability
Assay: Anticancer human tumor 282377-053-R-J1-PDC patient-derived colon adenocarcinoma cell line growth inhibition [POLQ]
Settings: curve of first compound; second compound 0.1 µM

# count of solved cases: 2
C=CC(=O)N1CCN(c2nc(=O)n(-c3c(C)ccnc3C(C)C)c3nc(-c4c(O)cccc4F)c(F)cc23)C(C)C1 (stereo not drawn) + Cc1cccc(N(C)C(=O)C2C(O)CCN2c2nc(C)cc(C(F)(F)F)c2C#N)c1 ... > 10 µM
CCCS(=O)(=O)Nc1ccc(F)c(C(=O)c2c[nH]c3ncc(-c4ccc(Cl)cc4)cc23)c1F + Cc1cccc(N(C)C(=O)C2C(O)CCN2c2nc(C)cc(C(F)(F)F)c2C#N)c1 ... > 10 µM

Consider now this further molecule.
Task: Return reported IC50; argument: C#Cc1c(F)ccc2cc(O)cc(-c3ncc4c(N5CC6CCC(C5)N6)nc(OCC56CCCN5CC(F)C6)nc4c3F)c12 (stereo not drawn) + COC1C(OC(N)=O)C(O)C(Oc2ccc3c(O)c(NC(=O)c4ccc(O)c(CC=C(C)C)c4)c(=O)oc3c2C)OC1(C)C
Output: > 10 µM

----------
Collected viability, T/C values appear next to each entry.
Test system: 282377-053-R-J1-PDC complex spheroid viability
Experiment: Anticancer human tumor 282377-053-R-J1-PDC cell line growth inhibition [POLQ];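 further: spheroids exposed to compounds for seven days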;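 on viability, T/C: 100% = DMSO vehicle control viability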
Settings: second compound 10 µM; first compound 0.1 µM; stronger effect = lower value
Supply the numeric figure in %, leaving out any unit text.

C=CCn1c(=O)c2cnc(Nc3ccc(N4CCN(C)CC4)cc3)nc2n1-c1cccc(C(C)(C)O)n1 + Cc1cccc(N(C)C(=O)C2C(O)CCN2c2nc(C)cc(C(F)(F)F)c2C#N)c1 ... 98.9
COc1cc(C2c3cc4c(cc3C(OC3OC5COC(C)OC5C(O)C3O)C3COC(=O)C23)OCO4)cc(OC)c1O (stereo not given) + COC1C(OC(N)=O)C(O)C(Oc2ccc3c(O)c(NC(=O)c4ccc(O)c(CC=C(C)C)c4)c(=O)oc3c2C)OC1(C)C ... 83.2
CCc1c2c(nc3ccc(O)cc13)-c1cc3c(c(=O)n1C2)COC(=O)[C@]3(O)CC + COC1C(OC(N)=O)C(O)C(Oc2ccc3c(O)c(NC(=O)c4ccc(O)c(CC=C(C)C)c4)c(=O)oc3c2C)OC1(C)C ... 39.2
COc1cccc(OCCCN)c1-c1cc(Nc2cnc(C#N)cn2)n[nH]1 + Cc1cccc(N(C)C(=O)C2C(O)CCN2c2nc(C)cc(C(F)(F)F)c2C#N)c1 ... 61.8

Let us move to another entry and its viability, T/C.
Task: // viability, T/C lookup, key: CCc1c2c(nc3ccc(O)cc13)-c1cc3c(c(=O)n1C2)COC(=O)[C@]3(O)CC + Cc1cccc(N(C)C(=O)C2C(O)CCN2c2nc(C)cc(C(F)(F)F)c2C#N)c1
Output: 42.5

----------
System: 282377-053-R-J1-PDC complex spheroid viability
Assay: Anticancer human tumor 282377-053-R-J1-PDC cell line growth inhibition [POLQ];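 further: spheroids exposed to compounds for seven days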;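 on viability, T/C: 100% = DMSO vehicle control viability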
Conditions: second compound 1 µM; first compound 1 µM; stronger effect = lower value
test readout: viability, T/C (%)
Numbers only here, please. The scale is %.

Answered examples (3):
CCc1cc2c(N3CCc4c(cc(Cn5ccnc5)cc4-c4cn(C)nc4C(F)(F)F)C3=O)ccnc2c(OC)n1 + Cc1cccc(N(C)C(=O)C2C(O)CCN2c2nc(C)cc(C(F)(F)F)c2C#N)c1 ... 101
CC1COCCN1c1cc(C2(O)CC3CCC(C2)O3)c2cnn(-c3ccn[nH]3)c2n1 (stereo unspecified) + Nc1ccc(C#CCN(C(=O)Cc2ncc(C(F)(F)F)cc2C(F)(F)F)c2ccc(F)cc2)nn1 ... 38.3
O=c1[nH]cc(F)c(=O)[nH]1 + Cc1cccc(N(C)C(=O)C2C(O)CCN2c2nc(C)cc(C(F)(F)F)c2C#N)c1 ... 104

Task: Fill blank: measured viability, T/C of the compound COc1cc2cc(C(=O)CCC(=O)O)sc2cc1OC + Nc1ccc(C#CCN(C(=O)Cc2ncc(C(F)(F)F)cc2C(F)(F)F)c2ccc(F)cc2)nn1 is ____.
Output: 104

Task: Which value of viability, T/C has been reported for COc1ccc([C@@H](O)c2cc(-c3ncnc4cc(N5CCOCC5)ccc34)c(F)cc2Cl)nn1 + COC1C(OC(N)=O)C(O)C(Oc2ccc3c(O)c(NC(=O)c4ccc(O)c(CC=C(C)C)c4)c(=O)oc3c2C)OC1(C)C in the records?
Output: 87.2

Task: State the recorded viability, T/C for this entry: COc1cccc2c1C(=O)c1c(O)c3c(c(O)c1C2=O)CC(O)(C(=O)CO)CC3OC1CC(N)C(O)C(C)O1 (stereo unspecified) + Cc1cccc(N(C)C(=O)C2C(O)CCN2c2nc(C)cc(C(F)(F)F)c2C#N)c1
Output: 29.9

Task: Quick one: viability, T/C for COc1cc(C2c3cc4c(cc3C(OC3OC5COC(C)OC5C(O)C3O)C3COC(=O)C23)OCO4)cc(OC)c1O (stereo unspecified) + COC1C(OC(N)=O)C(O)C(Oc2ccc3c(O)c(NC(=O)c4ccc(O)c(CC=C(C)C)c4)c(=O)oc3c2C)OC1(C)C ?
Output: 81.1

Task: State the recorded viability, T/C for this entry: C#Cc1c(F)ccc2cc(O)cc(-c3ncc4c(N5CC6CCC(C5)N6)nc(OCC56CCCN5CC(F)C6)nc4c3F)c12 (stereo unspecified) + Nc1ccc(C#CCN(C(=O)Cc2ncc(C(F)(F)F)cc2C(F)(F)F)c2ccc(F)cc2)nn1
Output: 92.7

Task: Would you mind telling me what viability, T/C value was observed for O=C(Nc1ccc(O)c(NS(=O)(=O)c2ccc(F)cc2)c1)c1ccc(-c2ccccc2)cc1 + Nc1ccc(C#CCN(C(=O)Cc2ncc(C(F)(F)F)cc2C(F)(F)F)c2ccc(F)cc2)nn1 ?
Output: 109

Task: Name the reported viability, T/C value associated with the compound CCCS(=O)(=O)Nc1ccc(F)c(C(=O)c2c[nH]c3ncc(-c4ccc(Cl)cc4)cc23)c1F + Cc1cccc(N(C)C(=O)C2C(O)CCN2c2nc(C)cc(C(F)(F)F)c2C#N)c1
Output: 70.3

Task: What does the data say about its viability, T/C? Entry: COc1cc(C2c3cc4c(cc3C(OC3OC5COC(C)OC5C(O)C3O)C3COC(=O)C23)OCO4)cc(OC)c1O (stereo unspecified) + Nc1ccc(C#CCN(C(=O)Cc2ncc(C(F)(F)F)cc2C(F)(F)F)c2ccc(F)cc2)nn1
Output: 121

Source listed as PubChem BioAssay AID1963852.
